biological target: 5-hydroxytryptamine receptor 2A (Homo sapiens) (UniProt P28223); assay: 5-hydroxytryptamine receptor 2A (HTR2A) small molecule agonists, cell-based qHTS assay (AID 1963587); settings: HTR2A-CHO cells, calcium flux fluorescence, agonist mode; series mostly up to 76.8 µM; further: nearly all actives have a fitted effect of over 30% in size
Sequence (P28223 whole entry, looked up): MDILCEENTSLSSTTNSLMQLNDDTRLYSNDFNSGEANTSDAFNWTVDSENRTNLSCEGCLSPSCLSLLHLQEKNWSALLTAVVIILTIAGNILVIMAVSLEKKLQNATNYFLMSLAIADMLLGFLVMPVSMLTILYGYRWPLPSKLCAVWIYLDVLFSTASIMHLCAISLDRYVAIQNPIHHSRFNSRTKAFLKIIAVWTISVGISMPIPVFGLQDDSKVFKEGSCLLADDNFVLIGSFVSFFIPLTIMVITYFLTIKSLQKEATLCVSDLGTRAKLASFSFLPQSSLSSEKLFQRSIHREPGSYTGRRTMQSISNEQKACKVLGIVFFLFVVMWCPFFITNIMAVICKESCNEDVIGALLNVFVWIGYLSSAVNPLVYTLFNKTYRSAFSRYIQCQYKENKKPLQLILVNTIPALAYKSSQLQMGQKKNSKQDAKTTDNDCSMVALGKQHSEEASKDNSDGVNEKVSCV
Records with an inconclusive call do not appear. Calls of active or inactive are those of the source. The call rests on the fitted dose curve.
Classes used: label 1 (active), label 0 (inactive)

Compound: CC(C)=CCCC(C)CC(=O)O (stereo not drawn)
Group: label 0
//
Compound: O=C(c1ccccc1)C1CCC1
Group: label 0
//
Compound: Cc1cccc(OCCOc2cccc(C)c2)c1
Group: label 0
//
Compound: CC(C)(C)C(O)/C=C/c1ccc2c(c1)OCO2 (stereo not drawn)
Group: label 0
//
Compound: Cc1onc(-c2c(Cl)cccc2Cl)c1C(=O)N[C@@H]1C(=O)N2[C@@H]1SC(C)(C)[C@@H]2C(=O)O
Group: label 0
//
Compound: C=C(C)C(=O)OCCOCCOC(=O)C(=C)C
Group: label 0
//
Compound: COc1cccc(N)c1
Group: label 0
//
Compound: C=CC(=O)[O-].C=CC(=O)[O-].[Zn+2]
Group: label 0
//
Compound: CCCN(CCc1cccs1)[C@H]1CCc2c(O)cccc2C1
Group: label 1
//
Compound: CCCCCCCCCCCCCCCCN
Group: label 1
//
Compound: CC(Cc1ccccc1)(NC(=O)CN)c1ccccc1 (stereo not drawn)
Group: label 0
//
Compound: C=C[Si]1(C)O[Si](C)(C=C)O[Si](C)(C=C)O[Si](C)(C=C)O1 (stereo not drawn)
Group: label 0
//
Compound: C=CC(=C)CCCC(C)(C)OC(C)=O
Group: label 0

----------
target: 5-hydroxytryptamine receptor 2A (Homo sapiens) (UniProt P28223); test: 5-hydroxytryptamine receptor 2A (HTR2A) small molecule agonists, cell-based qHTS assay (AID 1963587); conditions: HTR2A-CHO cells, calcium flux fluorescence, agonist mode; series mostly up to 76.8 µM; further: nearly all actives have a fitted effect of over 30% in size
Results filed as inconclusive are left out. The source made the active and inactive calls. Calls follow the shape of the full dose curve.
Outcomes: active, inactive

Molecule: CC(C)COC(=O)CC(C(=O)OCC(C)C)S(=O)(=O)O (stereo not drawn)
Group: inactive
--
Molecule: CC1(O)CSC(C)(O)CS1 (stereo not drawn)
Group: inactive
--
Molecule: C=Cc1ccc(O)c(OC)c1
Group: inactive
--
Molecule: C[C@@H]1CC[C@H]2C(C)(C)[C@H]3C[C@@]12CC[C@@]3(C)O
Group: active
--
Molecule: O=S(=O)(O)c1cc(O)c2ccc(Nc3ccccc3)cc2c1
Group: inactive
--
Molecule: CC(=O)Nc1ccc(S(=O)(=O)Nc2ccc([N+](=O)[O-])cc2)cc1
Group: inactive
--
Molecule: NC(=S)NC(N)=S
Group: inactive
--
Molecule: COC(=O)CC(=O)C(C)(C)C
Group: inactive
--
Molecule: Cc1ccc(O)c2ncccc12
Group: inactive
--
Molecule: C1CCC2(CCCCO2)OC1
Group: inactive
--
Molecule: Cc1c(C)c2c(c(C)c1OC(=O)c1cccnc1)CC[C@@](C)(CCC[C@H](C)CCC[C@H](C)CCCC(C)C)O2
Group: inactive
--
Molecule: CC(=O)C(=O)CC(C)C
Group: inactive
--
Molecule: O=c1c2ccccc2oc2ccccc12
Group: inactive
--
Molecule: CN(C)Cc1cc(C(C)(C)C)c(O)c(C(C)(C)C)c1
Group: inactive
--
Molecule: COc1cc(C)cc(O)c1
Group: inactive
--
Molecule: Oc1cc2ccccc2c2ccccc12
Group: inactive
--
Molecule: Cc1ccc(C=O)cc1C
Group: inactive
--
Molecule: CNc1ncnc2nc[nH]c12
Group: inactive
--
Molecule: CC(C)(C)C(=O)CCc1ccc(Cl)cc1
Group: inactive
--
Molecule: O=C(NS(=O)(=O)/C=C/c1cccs1)c1ccc(F)cc1Br
Group: inactive
--
Molecule: Clc1ccc(Nc2nnc(Cc3ccncc3)c3ccccc23)cc1
Group: inactive
--
Molecule: CCCCN(CCCC)C(=S)SSC(=S)N(CCCC)CCCC
Group: inactive
--
Molecule: CC1=C(/C=C/C(C)=C/C=C/C(C)=C\C=O)C(C)(C)CCC1
Group: inactive
--
Molecule: COC(=O)C1=C(C)NC(C)=C(C(=O)OC(C)C)C1c1cccc2nonc12 (stereo not drawn)
Group: inactive
--
Molecule: CC(=O)[O][Al]
Group: inactive
--
Molecule: O=C(O)Cn1cnnn1
Group: inactive
--
Molecule: CC(=O)c1ccc([N+](=O)[O-])cc1
Group: inactive
--
Molecule: CC(=O)OC(C)C[N+](C)(C)C (stereo not drawn)
Group: inactive

----------
target: D(2) dopamine receptor (Homo sapiens); assay: Dopamine D2 receptor (DRD2) small molecule agonists, cell-based qHTS assay (AID 1963594); conditions: HEK293-DRD2 cAMP HTRF, agonist mode, 30 min; series mostly up to 92.4 µM; further: on the % scale 0 is the no-effect control and ±100 the full control effect; nearly all actives have a fitted effect of over 35% in size
Inconclusive results are not listed. Calls of active or inactive are those of the source. Calls come from the whole dose curve.

Compound: CCC1OCC(COc2ccc(Oc3ccccc3)cc2)O1 (stereo not given)
activation: inactive

Compound: OCCOc1cccc(OCCO)c1
activation: inactive

Compound: CC(=O)Oc1ccc(C(=C2CCCCC2)c2ccc(OC(C)=O)cc2)cc1
activation: inactive

Compound: C[C@]12CCC(=O)C=C1[C@@H]1C[C@@H]1[C@H]1[C@@H]3[C@@H]4C[C@@H]4[C@@]4(CCC(=O)O4)[C@@]3(C)CC[C@@H]12
activation: inactive

Compound: C=CC(=O)OCCn1c(=O)n(CCOC(=O)C=C)c(=O)n(CCOC(=O)C=C)c1=O
activation: inactive

----------
test: p53 small molecule agonists, cell-based qHTS assay (AID 1963582); details: HCT-116 p53RE-bla reporter, beta-lactamase FRET ratio, 16 h; series mostly up to 66 µM; further: potency means the concentration at half of the fitted maximal effect
Inconclusive results are not listed. Activity calls are given as the source filed them. Calls follow the shape of the dose curve; as a rule, active = well fitted activation curve with a large enough effect in the signal ratio in the repeat runs (not every such curve was filed as active); inconclusive = weak or mixed curves; inactive = flat fitted curve, though single readings scatter; the % refers to the signal ratio.

Compound: CCN(CC)CCCC(C)Nc1c2ccc(Cl)cc2nc2ccc(OC)cc12 (stereo unspecified)
Potency: 19.9 µM (active)

Compound: COc1cccc2c1C(=O)c1c(O)c3c(c(O)c1C2=O)C[C@@](O)(C(=O)CO)C[C@@H]3O[C@H]1C[C@H](N)[C@H](O[C@@H]2CCCCO2)[C@H](C)O1
Potency: 1.78 µM (active)

Compound: O=S(c1cc(Cl)cc(Cl)c1O)c1cc(Cl)cc(Cl)c1O
Potency: 17.8 µM (active)

Compound: CC(C)C[C@H](NC(=O)[C@H](Cc1ccccc1)NC(=O)c1cnccn1)B(O)O
Potency: 0.0141 µM (active)

Compound: O=C(NOCC1CC1)c1ccc(F)c(F)c1Nc1ccc(I)cc1Cl
Potency: 19.9 µM (active)

Compound: CO[C@@]12[C@H](COC(N)=O)C3=C(C(=O)C(C)=C(N)C3=O)N1C[C@@H]1N[C@@H]12
Potency: 15.8 µM (active)

Compound: NC(=O)c1ccccc1C(N)=O
Potency: 45.9 µM (active)

Compound: COc1ccc(C(=O)/C(Br)=C\C(=O)O)cc1
Potency: 32.4 µM (active)

Compound: CC(=O)Oc1ccc(C2(c3ccc(OC(C)=O)cc3)Oc3ccccc3NC2=O)cc1
Potency: 4.46 µM (active)

Compound: CCCCCCNC(=O)n1cc(F)c(=O)[nH]c1=O
Potency: 5 µM (active)

Compound: O=c1[nH]c(=O)n([C@H]2C[C@H](O)[C@@H](CO)O2)cc1F
Potency: 0.446 µM (active)

----------
target: Beta-2 adrenergic receptor (Homo sapiens) (UniProt P07550); assay: Adrenergic beta2 receptor (ADRB2) small molecule antagonists, cell-based qHTS assay (AID 1963592); settings: CHO-ADRB2 cells, isoproterenol-stimulated cAMP HTRF ratio, 0.5 h; series mostly up to 92.4 µM; further: nearly all actives have a fitted effect of over 50% in size
Sequence (P07550 whole entry, looked up): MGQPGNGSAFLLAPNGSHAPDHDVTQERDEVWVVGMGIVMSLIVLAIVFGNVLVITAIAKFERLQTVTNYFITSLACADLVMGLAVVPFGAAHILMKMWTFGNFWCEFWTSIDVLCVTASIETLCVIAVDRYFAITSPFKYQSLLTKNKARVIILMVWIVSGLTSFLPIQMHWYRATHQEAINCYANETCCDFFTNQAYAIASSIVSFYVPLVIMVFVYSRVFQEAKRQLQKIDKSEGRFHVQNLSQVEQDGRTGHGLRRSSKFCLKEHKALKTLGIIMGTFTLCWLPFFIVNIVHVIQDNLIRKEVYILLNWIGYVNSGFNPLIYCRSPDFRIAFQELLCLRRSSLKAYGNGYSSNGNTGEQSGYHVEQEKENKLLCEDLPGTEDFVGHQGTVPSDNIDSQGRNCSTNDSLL
Inconclusive results are not listed. Calls of active or inactive are those of the source. The call rests on the fitted dose curve.
Classes used: true = active, false = inactive

Structure: CN1CCCN=C1/C=C/c1cccs1
Group: false
--
Structure: CCCCC[C@H](O)/C=C/[C@H]1[C@H](O)CC(=O)[C@@H]1C/C=C\CCCC(=O)O
Group: false
--
Structure: NC(N)=NN=C(/C=C/c1ccc([N+](=O)[O-])o1)/C=C/c1ccc([N+](=O)[O-])o1
Group: false
--
Structure: C=C(C)CS(=O)(=O)O
Group: false
--
Structure: CCCCCC
Group: false
--
Structure: CN[C@H]1CC[C@@H](c2ccc(Cl)c(Cl)c2)c2ccc(S(N)(=O)=O)cc21
Group: true

----------
target: Beta-2 adrenergic receptor (Homo sapiens) (UniProt P07550); assay: Adrenergic beta2 receptor (ADRB2) small molecule antagonists, cell-based qHTS assay (AID 1963592); settings: CHO-ADRB2 cells, isoproterenol-stimulated cAMP HTRF ratio, 0.5 h; series mostly up to 92.4 µM; further: nearly all actives have a fitted effect of over 50% in size
Records with an inconclusive call do not appear. Calls of active or inactive are those of the source. The call rests on the fitted dose curve.
Possible outcomes: active, inactive

Molecule: C1CCC2(CCCCO2)OC1
System: Beta-2 adrenergic receptor (Homo sapiens) (UniProt P07550)
Group: inactive
--
Molecule: CCCCN(CCC(=O)OCC)C(C)=O
System: Beta-2 adrenergic receptor (Homo sapiens) (UniProt P07550)
Group: inactive
--
Molecule: COC(=O)Nc1nc2ccc(C(=O)C3CC3)cc2[nH]1
System: Beta-2 adrenergic receptor (Homo sapiens) (UniProt P07550)
Group: inactive
--
Molecule: O=S1(=O)N=C(O)c2ccccc21
System: Beta-2 adrenergic receptor (Homo sapiens) (UniProt P07550)
Group: inactive
--
Molecule: Cc1ccc(C(C)C)cc2c(C)ccc1-2
System: Beta-2 adrenergic receptor (Homo sapiens) (UniProt P07550)
Group: inactive
--
Molecule: OC1CCCCC1c1ccccc1 (centres undefined)
System: Beta-2 adrenergic receptor (Homo sapiens) (UniProt P07550)
Group: inactive
--
Molecule: CC[C@]12CCCN3CCc4c(n(c5ccccc45)C(=O)C1)[C@@H]32
System: Beta-2 adrenergic receptor (Homo sapiens) (UniProt P07550)
Group: inactive
--
Molecule: CCOC(=O)COC(=O)c1cc(Oc2ccc(C(F)(F)F)cc2Cl)ccc1[N+](=O)[O-]
System: Beta-2 adrenergic receptor (Homo sapiens) (UniProt P07550)
Group: active
--
Molecule: CNC(=S)NC
System: Beta-2 adrenergic receptor (Homo sapiens) (UniProt P07550)
Group: inactive
--
Molecule: CCCCCCC(O)CCCCCCCCCCC(=O)O (centres undefined)
System: Beta-2 adrenergic receptor (Homo sapiens) (UniProt P07550)
Group: inactive
--
Molecule: CC1=C(C=O)C(C)(C)CCC1
System: Beta-2 adrenergic receptor (Homo sapiens) (UniProt P07550)
Group: inactive
--
Molecule: CC(=O)c1ccc(C)cc1
System: Beta-2 adrenergic receptor (Homo sapiens) (UniProt P07550)
Group: inactive
--
Molecule: O=C1OC(=O)c2cc(Oc3ccc4c(c3)C(=O)OC4=O)ccc21
System: Beta-2 adrenergic receptor (Homo sapiens) (UniProt P07550)
Group: inactive
--
Molecule: COc1cc(OC)c2ccc(=O)oc2c1
System: Beta-2 adrenergic receptor (Homo sapiens) (UniProt P07550)
Group: inactive
